The reported numbers originate from ChEMBL document CHEMBL4422631.

Molecular target: Tyrosine-protein phosphatase non-receptor type 1 (Homo sapiens, UniProt P18031)
Sequence (P18031 whole entry): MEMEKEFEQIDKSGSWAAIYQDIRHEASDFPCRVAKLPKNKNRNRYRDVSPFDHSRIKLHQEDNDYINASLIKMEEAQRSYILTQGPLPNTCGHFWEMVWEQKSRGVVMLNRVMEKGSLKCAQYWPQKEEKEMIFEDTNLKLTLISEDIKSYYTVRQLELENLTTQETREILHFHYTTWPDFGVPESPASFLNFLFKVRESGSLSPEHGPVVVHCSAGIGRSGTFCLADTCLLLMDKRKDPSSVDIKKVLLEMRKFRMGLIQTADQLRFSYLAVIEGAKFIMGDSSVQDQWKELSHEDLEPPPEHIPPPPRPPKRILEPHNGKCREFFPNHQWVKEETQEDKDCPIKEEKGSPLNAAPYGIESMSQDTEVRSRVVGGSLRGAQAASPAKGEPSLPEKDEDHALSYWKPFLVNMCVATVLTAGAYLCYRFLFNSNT
measurementType: IC50 (µM)
Number in µM, nothing else.

Query the reported IC50 for Tyrosine-protein phosphatase non-receptor type 1 (Homo sapiens, UniProt P18031); item: `CCOS(=O)(=O)/C=C/c1ccc(O[C@@H]2CN(C(=O)C(=O)Nc3ccc(Oc4ccc(C(C)(C)C)cc4)cc3)C[C@@H]2Oc2ccc(CCS(=O)(=O)OCC)cc2)cc1` 1.17

Query the reported IC50 for Tyrosine-protein phosphatase non-receptor type 1 (Homo sapiens, UniProt P18031); item: `CCOS(=O)(=O)/C=C/c1ccc(O[C@@H]2CN(C(=O)c3ccc(Oc4ccc(C(C)C)cc4)cc3)C[C@H]2Oc2ccc(/C=C/S(=O)(=O)OCC)cc2)cc1` 3.36

Query the reported IC50 for Tyrosine-protein phosphatase non-receptor type 1 (Homo sapiens, UniProt P18031); item: `CCOS(=O)(=O)/C=C/c1ccc(O[C@@H]2CN(C(=O)C(=O)Nc3ccc(Oc4ccc(F)cc4)cc3)C[C@@H]2Oc2ccc(CCS(=O)(=O)OCC)cc2)cc1` 1.22
